- System: HCC-2998 colon
- PROTOCOL_SUMMARY: NCI tumour cell line growth inhibition, 48 h

COMPOUND	MEASUREMENT_UNITS	RESULT_MODIFIER	TGI
O=C(C[N+]12CN3CN(CN(C3)C1)C2)c1ccc(-c2ccccc2)cc1	µM	=	28.9
S=c1ssnc1-c1cc2ccccc2o1	µM	=	34.4
N=C(N)c1ccc2oc3ccc(C(=N)N)cc3c(=O)c2c1	µM	>	100
COC(=O)c1c(C)nc(C)c2c1C(=O)C(Br)=C(NCc1ccccc1)C2=O	µM	=	10.5
O=c1[nH]c2cc(Cl)ccc2nc1/C(=N\Nc1ccccc1)C(O)c1ccc2c(c1)OCO2 (stereo unspecified)	µM	>	100
COc1ccc(-c2nsc3c2NC(=O)CC3c2ccsc2)cc1 (stereo unspecified)	µM	>	22.7
